- TARGET OR SYSTEM: 5-LOX (Homo sapiens)
- Sequence (P09917 whole entry): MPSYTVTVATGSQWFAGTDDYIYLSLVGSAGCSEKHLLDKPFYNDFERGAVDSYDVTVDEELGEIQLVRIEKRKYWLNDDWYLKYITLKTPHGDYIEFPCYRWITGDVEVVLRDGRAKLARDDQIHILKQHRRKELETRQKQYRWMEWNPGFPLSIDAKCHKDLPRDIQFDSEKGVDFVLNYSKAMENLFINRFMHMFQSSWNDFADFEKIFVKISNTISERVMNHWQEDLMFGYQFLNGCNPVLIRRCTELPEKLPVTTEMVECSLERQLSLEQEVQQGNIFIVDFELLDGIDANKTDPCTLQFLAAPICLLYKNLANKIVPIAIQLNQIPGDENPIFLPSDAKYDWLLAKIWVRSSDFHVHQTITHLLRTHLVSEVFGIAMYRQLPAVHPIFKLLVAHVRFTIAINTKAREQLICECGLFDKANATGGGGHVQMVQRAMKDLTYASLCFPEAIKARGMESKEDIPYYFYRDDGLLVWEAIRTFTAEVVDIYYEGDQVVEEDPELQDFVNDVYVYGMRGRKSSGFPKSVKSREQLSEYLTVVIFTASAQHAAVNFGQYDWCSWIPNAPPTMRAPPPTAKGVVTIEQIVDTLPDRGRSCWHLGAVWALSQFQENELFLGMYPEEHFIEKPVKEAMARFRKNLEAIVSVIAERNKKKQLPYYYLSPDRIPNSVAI
- METHOD: 5-LOX product formation in human activated PMNL (A23187)
- Type: cell-based
- Design: Freshly isolated PMNL (5 × 10^6) suspended in PBS pH 7.4 with 1 mg/mL glucose were preincubated with the test compounds; endogenous in cells; host or cells: human PMNL from donor blood
- MEASUREMENT SETUP: human activated PMNL
- Source text: Human PMNL were freshly isolated from leukocyte concentrates that were obtained from the Institute for Transfusion Medicine of the University Hospital Jena (Germany). […] These volunteers regularly donated blood (every 8–12 weeks) and were physically inspected by a clinician. […] Major 5-LOX products (all-trans isomers of LTB and 5-HETE, and additionally LTB4) were extracted and analyzed by RP-HPLC as described for the determination of cell-free 5-LOX activity.
PROPERTY LABEL: IC50

INSERT INTO results (line_notation, property_label, observed) VALUES
  ('CC1(C)C2CC[C@@]1(CS(=O)(=O)Nc1ccc3c(c1)CCN3Cc1ccc(F)cc1)C(=O)C2', 'IC50', '2.56 µM'),
  ('COC(=O)CCCn1ccc2cc(NC(=O)NCC34C[C@H]5C[C@@H](C3)C[C@@H](C4)C5)ccc21', 'IC50', '6.83 µM'),
  ('NCc1ccc(Cn2ccc3cc(NC(=O)NCC45C[C@H]6C[C@@H](C4)C[C@@H](C5)C6)ccc32)cc1', 'IC50', '6.19 µM'),
  ('O=C(NCC12C[C@H]3C[C@@H](C1)C[C@@H](C2)C3)Nc1ccc2c(ccn2Cc2ccc(C(=O)O)cc2)c1', 'IC50', '4.4 µM'),
  ('O=C(O)CCCn1ccc2cc(NC(=O)NCC34C[C@H]5C[C@@H](C3)C[C@@H](C4)C5)ccc21', 'IC50', '8.15 µM');

* * *

- METHOD: Chemical stability in phosphate buffer pH 7.4
- Format: physicochemical
- MEASUREMENT SETUP: 2.0 h; 5 μM
Some compounds, each annotated with its measured chemical stability in phosphate buffer (pH 7.4).
PROPERTY LABEL: chemical stability in phosphate buffer (pH 7.4) (%)

INSERT INTO results (line_notation, observed) VALUES
  ('O=C(Nc1ccc2c(c1)CCN2Cc1ccc(F)cc1)NC12C[C@H]3C[C@@H](C1)C[C@@H](C2)C3', 102.4),
  ('O=C(NCC12C[C@H]3C[C@@H](C1)C[C@@H](C2)C3)Nc1ccc2c(ccn2CCc2ccc(F)cc2)c1', 102.4),
  ('O=C(NCC12C[C@H]3C[C@@H](C1)C[C@@H](C2)C3)Nc1ccc2c(ccn2C(=O)c2ccc(F)cc2)c1', 92.4),
  ('CC(C)c1ccc(Cn2ccc3cc(NC(=O)NCC45C[C@H]6C[C@@H](C4)C[C@@H](C5)C6)ccc32)cc1', 102.4),
  ('O=C(NCC12C[C@H]3C[C@@H](C1)C[C@@H](C2)C3)Nc1ccc2c(ccn2Cc2ccc(F)cc2)c1', 96.4);

* * *

- METHOD: UGTs/CYPs dual-activity mouse liver microsomal stability
- Format: in vitro ADME
- MEASUREMENT SETUP: 1.0 h; 5 μM; NADPH + UDP-GlcUA
PROPERTY LABEL: UGTs/CYPs dual-activity mouse liver microsomal stability (%)

INSERT INTO results (line_notation, readout_unit, observed) VALUES
  ('O=C(Nc1ccc2c(c1)CCN2Cc1ccc(F)cc1)NC12C[C@H]3C[C@@H](C1)C[C@@H](C2)C3', '%', 10.6),
  ('CC(C)c1ccc(Cn2ccc3cc(NC(=O)NCC45C[C@H]6C[C@@H](C4)C[C@@H](C5)C6)ccc32)cc1', '%', 53.1),
  ('O=C(NCC12C[C@H]3C[C@@H](C1)C[C@@H](C2)C3)Nc1ccc2c(ccn2CCc2ccc(F)cc2)c1', '%', 5.7),
  ('O=C(NCC12C[C@H]3C[C@@H](C1)C[C@@H](C2)C3)Nc1ccc2c(ccn2C(=O)c2ccc(F)cc2)c1', '%', 2.4),
  ('O=C(NCC12C[C@H]3C[C@@H](C1)C[C@@H](C2)C3)Nc1ccc2c(ccn2Cc2ccc(F)cc2)c1', '%', 2.1);
